target: THOC4 (ALYREF) (UniProt Q86V81 Q86V81:2-257); assay: SPR
endpoint label: binding signal (normalized Rmax)
# output: bare number, implied unit normalized Rmax

Please look up its binding signal: CUAGUAAGUCGGACUUGCCU (ssRNA, 2'-OMe all, full PS) [DKLS447399 (SEQ 63)]
1.22

Please look up its binding signal: UGUCAUAUUCCUGGAUCCUU (ssRNA, 2'-OMe all, full PS) [DKLS684387 (SEQ 29)]
0.87

Please look up its binding signal: GAGGCAGCAGUACGAC (ssRNA, 2'-OMe all, full PS) [LSA_ATG both-end truncation 16 nt]
0.44

Please look up its binding signal: CAGCAGCAGAGUCUUCAUCAU (ssRNA, 2'-OMe all, full PS) [DKLS354527 (SEQ 21)]
0.37

Please look up its binding signal: UCAAGGAAGAUGGCAUUUCU (ssRNA, 2'-OMe all, full PS) [DKLS687764 (SEQ 14)]
0.55

Please look up its binding signal: GCGGGUCCUCUACGCACUGA (ssRNA, 2'-OMe all, full PS) [DKLS649547 (SEQ 53)]
0.85

Please look up its binding signal: CCAGUGAGCCGAACUUCUCU (ssRNA, 2'-OMe all, full PS) [DKLS459014 (SEQ 62)]
0.26
